Test system: COLO 205 colon
Test: NCI tumour cell line growth inhibition, 48 h
Label 0.0 if TGI falls below 5 µM; label 1.0 in every other case.

# count of solved cases: 3
- molecule: "COc1c(C(=O)/C(=N/Nc2cccc(Cl)c2)C(C)=O)c(O)c(OC)c2occc12"
  system tested: "COLO 205 colon"
  assigned category: 1.0
- molecule: "COc1ccc(OC)c2sc(N3C(=O)/C(=C/c4ccc(SC)cc4)N=C3c3ccccc3)nc12"
  system tested: "COLO 205 colon"
  assigned category: 1.0
- molecule: "COc1cc(/C=C/C(=O)c2ccc(F)cc2)ccc1OCCCCOc1cc2c(cc1OC)C(=O)N1CCCC1C=N2 (centres undefined)"
  system tested: "COLO 205 colon"
  assigned category: 1.0

Ask: hey, is TGI for this one >= 5 µM? O=C(/C=C/c1ccc[nH]1)c1ccccc1
Result: 1.0

Ask: hey, is TGI for this one >= 5 µM? COc1ccc2c(c1)CC[C@@H]1C2CC[C@]2(C)C(=N\O)/C(=N/O)CC12 (some centres undefined)
Result: 1.0

Ask: hey, is TGI for this one >= 5 µM? Nc1c(C(=O)c2ccc(Cl)cc2)[nH]c(Nc2ccc(Cl)cc2)c1C(=S)Nc1ccccc1
Result: 1.0

Ask: hey, is TGI for this one >= 5 µM? CCCCN1C(=O)C2c3[nH]c4ccccc4c3C3CCCCC3C2C1=O (mixture of isomers)
Result: 1.0

Ask: hey, is TGI for this one >= 5 µM? COC(=O)c1c(O)ccc2c1c1cc3ccccc3c(O)c1n2Cc1ccccc1Cl
Result: 1.0

Ask: hey, is TGI for this one >= 5 µM? COc1ccc2c3c(ccc2c1)NC(C(=O)O)CC3 (centres undefined)
Result: 1.0

Ask: hey, is TGI for this one >= 5 µM? COc1ccc2c(c1)C(=O)c1c-2n(CCCCl)c(=O)c2cc([N+](=O)[O-])ccc12
Result: 1.0

----------
System: M19-MEL melanoma
Test: NCI tumour cell line growth inhibition, 48 h
value type: TGI

- compound: "CN(C(=N)c1ccccc1)c1ccccc1"
  value type: "TGI"
  result: "> 100 µM"
- compound: "OCC(O)C(O)C(O)c1nn[nH]n1 (stereo not given)"
  value type: "TGI"
  result: "> 100 µM"
- compound: "C=CCNC(=O)ON1C(=O)CCC1=O"
  value type: "TGI"
  result: "> 100 µM"

State the recorded TGI for every item in the following list.
1. COc1cccc(-c2cc(=O)c3cc(C)c(C)c(C(=O)O)c3o2)c1
2. [O-]c1ccccc1[C-]=Nc1ccccc1O.[O-]c1ccccc1[C-]=Nc1ccccc1O.[O]=[U]=[O]
3. ClCCN(CC#CCCCC#CCN(CCCl)CCCl)CCCl
4. COc1ccc(C(=O)NNC(=O)c2nsc3ccccc23)cc1
5. NCc1ccc(O)c(O)c1O
6. CC(=O)O[C@H]1CC[C@@]2(C)C(=CC[C@@H]3C2CC[C@]2(C)C(=O)NC(=O)CC32)C1 (stereo not given in full)
7. CO[C@H](C(=O)O[C@H]1C(=O)N2CCC3CCC1C32C)c1ccccc1 (stereo not given in full)

Result:
> 100 µM
48.6 µM
29.5 µM
> 100 µM
26.9 µM
> 100 µM
> 100 µM

State the recorded TGI for every item in the following list.
1. CN(C)C=O.CN(C)C=O.CN1C(C(=O)Nc2ccccn2)=C([O-])c2ccccc2S1(=O)=O.CN1C(C(=O)Nc2ccccn2)=C([O-])c2ccccc2S1(=O)=O.[Cu+2]
2. CC(/C=C/C=C\C=C\C=C(/C)C(=O)NC(C)CO)=C\C(C)C(O)/C(C)=C/C(C)CCc1ccccc1 (stereo not given)
3. COC(=O)c1ccc(CS(=O)(=O)c2ccccc2)cc1
4. NC(CCCNc1ccc(O)cc1)C(=O)O (stereo not given)
5. CC1(OCc2ccccc2)C(=O)N2C1N(C(=O)OCc1ccccc1)CC2(C)C (stereo not given)

Result:
> 100 µM
19.4 µM
> 100 µM
32.7 µM
> 100 µM

----------
I'd be grateful if you could share measured TGI for these entries.
Tested on: BT-549 breast
Assay: NCI tumour cell line growth inhibition, 48 h

- compound: "O=C1CSC(c2c[nH]c3ccccc23)N1c1cccc([N+](=O)[O-])c1 (configuration not stated)"
  system tested: "BT-549 breast"
  TGI: "> 100 µM"
- compound: "Clc1ccc(-c2c3nc(c(-c4ccc(Cl)cc4)c4ccc([nH]4)c(-c4ccc(Cl)cc4)c4nc(c(-c5ccc(Cl)cc5)c5ccc2[nH]5)C=C4)C=C3)cc1"
  system tested: "BT-549 breast"
  TGI: "> 100 µM"
- compound: "O=C1c2ccccc2-c2nc(-c3cccs3)cc3c2c1nc1ccccc13"
  system tested: "BT-549 breast"
  TGI: "> 100 µM"
- compound: "Oc1ccccc1/C=N/Nc1nc2ccccc2s1"
  system tested: "BT-549 breast"
  TGI: "> 100 µM"
- compound: "NNC(=O)CC(=O)Nc1ccccc1Cl"
  system tested: "BT-549 breast"
  TGI: "> 100 µM"
- compound: "COc1cc(/C=C2/CCCc3ccccc3C2=O)cc(OC)c1OC"
  system tested: "BT-549 breast"
  TGI: "> 78.5 µM"
- compound: "CCOC(=O)CC[C@H](NC(=O)c1ccc(CNc2nc3cc(C(F)(F)F)ccc3nc2C(=O)OCC)cc1)C(=O)OCC"
  system tested: "BT-549 breast"
  TGI: "70.3 µM"
- compound: "CC1(C)CC(=O)c2c([nH]c(=S)c(C#N)c2-c2ccc(Br)cc2)C1"
  system tested: "BT-549 breast"
  TGI: "> 100 µM"

State the recorded TGI for every item in the following list.
1. O=S(=O)(Nc1nc2ccccc2nc1Nc1cccc2ccccc12)c1ccccc1
2. N#Cc1c(N)n(C2OC(CO)C(O)C2O)c2ncnc(N)c12 (configuration not stated)
3. Cc1ccc(C(=O)Nc2ccc(CN3CCN(C)CC3)c(C(F)(F)F)c2)cc1C#Cc1cnc(N)c2ccc(C#N)cc12

Result:
> 100 µM
2.13 µM
> 50 µM

State the recorded TGI for every item in the following list.
1. Cc1nc2ccc(F)cc2c2c1CCN2c1ccccc1
2. Cc1c(C)n(CC(O)CNC2CCCCC2C)c2ccccc12 (configuration not stated)
3. CC[C@]1(Cc2ccc(OC)c(OC)c2)C=[N+]([O-])O[C@H](OC2CCCCC2c2ccccc2)[C@@H]1OC(C)=O (some centres not stated)
4. O=C1C2=C(C(=O)c3c(O)ccc(O)c31)N(c1cccnc1)Cc1ccccc1O2

Result:
1: 44.2 µM; 2: 30.1 µM; 3: > 100 µM; 4: 1.24 µM

State the recorded TGI for every item in the following list.
1. OCCNC(=S)Nc1ccc(-c2nc(N3C[C@H]4CC[C@@H](C3)O4)c3cccn3n2)cc1
2. Cc1c2ccccc2c(CSC(=N)N)c2ccccc12
3. Cc1nnc(N2C(=O)C(=Cc3ccc(Cl)cc3)N=C2c2ccc(Cl)cc2)nc1/C=C\c1ccc(N(C)C)cc1
4. Clc1ccc(C2ON=C(c3ccccc3)N2C23CC4CC(CC(C4)C2)C3)cc1Cl (configuration not stated)
5. CC(=O)O[C@H]1C[C@H]2[C@@H]([C@H](OC(C)=O)C[C@@H]3CC4(CC[C@@]32C)OOC2(CCCCC2)OO4)[C@@H]2CC[C@H]([C@H](C)CCC(N)=O)[C@@]12C
6. CC1(C)CCCC2(C)C3=C(CCC12)C(=O)OC3 (configuration not stated)
7. COC(=O)c1c(O)ccc2c1c1cc3ccccc3c(O)c1n2Cc1ccccc1Cl
8. S=P(C1CCCCC1)(C1CCCCC1)C(c1cccnc1)N1CCCC1 (configuration not stated)

Result:
1. 0.507 µM
2. 3.72 µM
3. > 100 µM
4. > 10 µM
5. 4.86 µM
6. > 100 µM
7. 91.7 µM
8. 35.6 µM

State the recorded TGI for every item in the following list.
1. COC1CC(=O)C2C(=O)N(c3ccccc3)C(=O)C23C(C(=O)c2ccccc2)=C(C)NC13O (configuration not stated)
2. Cc1cc(C)c(-n2c(C)c(C)c(C#N)c2N)c(C)c1
3. COc1ccc2nc(-c3ccc(Cl)cc3)cc(-c3nnc(SCC(=O)Nc4ccc(/C(C)=N\O)cc4)o3)c2c1
4. C=CC(C)CCC(C/C=C(\C)CCCC(C)C)C(=C)CCCC(C)C (configuration not stated)
5. O=C1CC(C(O)C(O)C(O)CO)CC(=O)N1 (configuration not stated)
6. COc1ccc(C2CC(c3ccc4ccccc4c3)=NN2/C=C2\SC(=S)N(NC(=O)Cc3ccccc3Nc3c(Cl)cccc3Cl)C2=O)cc1 (configuration not stated)

Result:
["> 100 µM", "> 100 µM", "18.9 µM", "> 100 µM", "> 100 µM", "> 43 µM"]
